Reported values of TGI for individual entries
Test system: SW-620 colon
METHOD_DESCRIPTION: NCI tumour cell line growth inhibition, 48 h

INSERT INTO measurements (molecule, experimental_endpoint, endpoint_value) VALUES
  ('CC[C@]12C=CCN3CC[C@]4(C(=C(C(=O)OC)C1)Nc1cc(O)ccc14)[C@@H]32', 'TGI', '36.6 µM'),
  ('Clc1ccc2c(Cl)ncnc2c1', 'TGI', '> 100 µM'),
  ('COc1ccccc1C(=O)c1cnc(NC2CCN(S(C)(=O)=O)CC2)nc1N', 'TGI', '> 25 µM'),
  ('CO[C@H]1C=C[C@]23c4cc5c(cc4CN(CC2O)[C@@H]3C1)OCO5 (stereo partly drawn)', 'TGI', '> 100 µM'),
  ('CN(C)c1ccc(C(=NNC(=O)c2cc3ccccc3[nH]2)c2ccc(N(C)C)cc2)cc1', 'TGI', '> 100 µM');

Lookup: # return recorded TGI for input COc1cn2c(cc1=O)COc1ccc(-c3ccccc3)cc1-2
Found: > 100 µM

Lookup: # return recorded TGI for input Brc1ccc2c(c1)C1(c3cc(Br)ccc3-2)c2cc(Br)ccc2-c2ccc(Br)cc21
Found: > 100 µM

Lookup: # return recorded TGI for input O=c1oc(-c2ccc(O)c(O)c2)cc2cc(O)cc(O)c12
Found: > 100 µM

Lookup: # return recorded TGI for input O=C(Oc1c(I)ccccc1=O)c1ccc([N+](=O)[O-])cc1
Found: 83.6 µM

Lookup: # return recorded TGI for input O=[N+]([O-])c1ccc2nc3ccc([N+](=O)[O-])cn3c2c1
Found: > 100 µM

Lookup: # return recorded TGI for input CC(C)OP(=O)(CP(=O)(OC(C)C)OC(C)C)OC(C)C.[CH3][Sn]([Br])([Br])[Br]
Found: > 100 µM

Lookup: # return recorded TGI for input COC(=O)C12CC(C3CC31)C1CC12 (stereo not drawn)
Found: > 100 µM

Lookup: # return recorded TGI for input COc1cc2oc3ccccc3c(=O)c2cc1CSc1ccccc1N
Found: > 100 µM

Lookup: # return recorded TGI for input COC(=O)[C@H](Cc1ccccc1)NC(=O)c1csc([C@@H](C[C@H](C(C)C)N(C)C(=O)[C@@H](NC(=O)[C@H]2CCCCN2C)C2CC2)OC(C)=O)n1
Found: > 25 µM

Lookup: # return recorded TGI for input CCOC(=O)CCC(NC(=O)OCc1ccccc1)C(=O)NNC(=O)OC(C)(C)C (stereo not drawn)
Found: > 100 µM

Lookup: # return recorded TGI for input CCOC(=O)/C=C1\Nc2ccccc2C12CCc1c([nH]c3ccccc13)C2C(=O)OCC (stereo not drawn)
Found: > 100 µM

Lookup: # return recorded TGI for input c1ccc(C2=NN3CN(N2)c2ccccc2OCCCOc2ccccc23)cc1
Found: > 100 µM

Lookup: # return recorded TGI for input CC1(C)N=C(N)N=C(N)N1c1ccc(OCC(=O)Nc2cccc(S(=O)(=O)F)c2)c(Cl)c1
Found: > 100 µM

###

System: HOP-62 NSCLC
METHOD_DESCRIPTION: NCI tumour cell line growth inhibition, 48 h
EXPERIMENTAL_ENDPOINT: GI50

Would you please look over these solved cases?
INSERT INTO results (compound, assay_system, endpoint_value) VALUES
  ('CN1CCCC1c1cccnc1.O=C(O)c1ccccc1O.O=C([O-])c1ccccc1[OH2+].O=C([O-])c1ccccc1[OH2+].O=C([O-])c1ccccc1[OH2+].[Mn+2] (stereo unspecified)', 'HOP-62 NSCLC', '> 100 µM'),
  ('Cc1ccc(NCSc2ccc(Cl)cc2)cc1', 'HOP-62 NSCLC', '30.7 µM'),
  ('O=c1oc(-c2ccc(O)c(O)c2)cc2cc(O)cc(O)c12', 'HOP-62 NSCLC', '33 µM'),
  ('COc1ccc2nc3ccc(OC)cc3c(SCCCN)c2c1', 'HOP-62 NSCLC', '20.3 µM'),
  ('C[C@@H](NC(=O)Cc1cc(F)cc(F)c1)C(=O)N[C@@]1(C)N=C(c2ccccc2)c2ccccc2N(C)C1=O', 'HOP-62 NSCLC', '64.7 µM');

// moving on: another record for GI50
Lookup: # return recorded GI50 for input O=C1OC(c2ccc(O)cc2)(c2ccc(O)cc2)c2cccc3cccc1c23
Found: 17.3 µM

###

Tested on: T-47D breast
METHOD_DESCRIPTION: NCI tumour cell line growth inhibition, 48 h
Reported values of TGI for individual entries

INSERT INTO assay_data (compound, experimental_endpoint, endpoint_value) VALUES
  ('COc1ccc(Cn2nc(OCc3ccccn3)c3cc([N+](=O)[O-])ccc32)cc1', 'TGI', '> 100 µM'),
  ('CCN(CC)CCOc1ccc(/C=C2\C[C@H]3[C@@H]4CC=C5C[C@@H](OC(C)=O)CC[C@]5(C)[C@H]4CC[C@]3(C)[C@H]2OC(C)=O)cc1OC', 'TGI', '48.1 µM'),
  ('c1ccc2c(c1)CC1c3[nH]c4ccccc4c3CCN21 (configuration not stated)', 'TGI', '> 10 µM'),
  ('Cc1cccc(NC(=O)CC(=O)N2N=C(N3c4ccccc4Sc4ccccc43)CC2c2ccccc2)c1 (configuration not stated)', 'TGI', '> 100 µM'),
  ('COc1ccc(C2CC(c3c(C)nn(-c4ccccc4)c3-c3ccc(C)cc3O)=NN2c2ccccc2)cc1 (configuration not stated)', 'TGI', '> 100 µM');

Lookup: Print T-47D breast TGI for O=c1oc(-c2ccc(O)c(O)c2)cc2cc(O)cc(O)c12 .
Found: > 100 µM

Lookup: Print T-47D breast TGI for O=C(C[C@@H]1NCCC[C@H]1O)Cn1cnc2cc(Br)c(Cl)cc2c1=O .
Found: 0.082 µM

Lookup: Print T-47D breast TGI for COc1cc(C(=O)Nc2nnc(S(N)(=O)=O)s2)cc(OC)c1OC .
Found: > 100 µM

Lookup: Print T-47D breast TGI for Cc1cc(S(=O)(=O)Nc2n[nH]c(Nc3ccccc3)n2)c(S)cc1Cl .
Found: > 10 µM

Lookup: Print T-47D breast TGI for NC(N)=N/N=C(\c1ccc(Cl)cc1)C1CC1 .
Found: 64.4 µM

###

Reported values of GI50 for individual entries
Tested on: SNB-19 CNS
METHOD_DESCRIPTION: NCI tumour cell line growth inhibition, 48 h

Would you please look over these solved cases?
INSERT INTO assay_data (compound, endpoint_value) VALUES
  ('COc1ccc2nc3ccc(OC)cc3c(SCCCN)c2c1', '14.4 µM'),
  ('COc1ccccc1C1C(C#N)=C(N)OC2=C1C(=O)CCC2 (stereo not drawn)', '> 100 µM'),
  ('N#CC1c2ccccc2-c2ccccc2N1C(=O)c1ccccc1 (stereo not drawn)', '4.12 µM'),
  ('Cc1ccc([P+](Cc2ccc([N+](=O)[O-])cc2)(c2ccc(C)cc2)c2ccc(C)cc2)cc1', '3.25 µM'),
  ('CCN(CC)CCOc1ccc(/C=C2\C[C@H]3[C@@H]4CC=C5C[C@@H](OC(C)=O)CC[C@]5(C)[C@H]4CC[C@]3(C)[C@H]2OC(C)=O)cc1OC', '11.8 µM'),
  ('COc1ccc(C[C@H]2C[C@@H](O)[C@@H](C)C/C=C/Cc3cccc(O)c3C(=O)O2)cn1', '38.9 µM'),
  ('O=C(N[C@@H]1CCCc2ccccc21)[C@H](CCC(=O)N1CCN(C2CCCCC2)CC1)N1C(=O)[C@@H](N2C(=O)OC[C@@H]2c2ccccc2)[C@H]1/C=C/c1ccccc1', '3.66 µM');

// moving on: another record for GI50
Lookup: # return recorded GI50 for input O=C(/C=C/N1CCN(c2cccc(C(F)(F)F)c2)CC1)c1ccc(Cl)cc1Cl
Found: 47.7 µM

###

Tested on: SK-MEL-5 melanoma
METHOD_DESCRIPTION: NCI tumour cell line growth inhibition, 48 h
EXPERIMENTAL_ENDPOINT: GI50

Would you please look over these solved cases?
INSERT INTO assay_data (compound, assay_system, endpoint_value) VALUES
  ('CC[C@]12C=CCN3CC[C@]4(C(=C(C(=O)OC)C1)Nc1cc(O)ccc14)[C@@H]32', 'SK-MEL-5 melanoma', '14800 nM'),
  ('COc1cccc(-c2nn(-c3ccccc3)cc2-c2ccnc(NCCNC(=O)Nc3ccc(Cl)c(Cl)c3)c2)c1', 'SK-MEL-5 melanoma', '1950 nM'),
  ('CC1Cc2c(N(C)C)ncnc2N(C)c2ccc(Cl)cc21 (stereo unspecified)', 'SK-MEL-5 melanoma', '3650 nM'),
  ('CCCC/C(=N\N=C(N)N)c1ccc(F)cc1', 'SK-MEL-5 melanoma', '1480 nM'),
  ('Cc1ccc(C2=Nc3c(N)ncnc3NC(c3cccc(Nc4ccnc5cc(C(F)(F)F)ccc45)c3)C2)cc1 (stereo unspecified)', 'SK-MEL-5 melanoma', '2050 nM');

Lookup: Print SK-MEL-5 melanoma GI50 for Nc1ncnc2occ(-c3ccc(NC(=O)Nc4cc(C(F)(F)F)cc(C(F)(F)F)c4)cc3)c12 .
Found: 3520 nM
